- target-or-system: T1, human ENTPD2, full length, on cells (human, UniProt Q9Y5L3 1-495)
- T1 sequence: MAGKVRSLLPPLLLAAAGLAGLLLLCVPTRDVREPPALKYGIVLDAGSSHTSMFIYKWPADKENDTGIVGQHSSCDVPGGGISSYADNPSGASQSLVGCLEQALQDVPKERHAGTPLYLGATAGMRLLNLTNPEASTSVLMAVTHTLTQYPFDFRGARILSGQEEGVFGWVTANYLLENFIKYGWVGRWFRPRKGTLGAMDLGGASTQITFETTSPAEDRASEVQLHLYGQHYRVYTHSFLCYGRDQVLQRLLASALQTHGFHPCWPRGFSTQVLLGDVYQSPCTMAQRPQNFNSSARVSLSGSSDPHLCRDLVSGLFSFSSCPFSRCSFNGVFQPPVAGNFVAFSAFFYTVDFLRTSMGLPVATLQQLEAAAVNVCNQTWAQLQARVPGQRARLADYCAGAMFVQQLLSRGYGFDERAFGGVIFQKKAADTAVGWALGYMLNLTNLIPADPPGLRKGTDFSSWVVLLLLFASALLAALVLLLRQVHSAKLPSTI
- procedure-details: cell-based or functional assay
Everything with Human ENTPD2 NIH/3T3 Assay % inhibition lower than 90% is not satisfied; everything else, including exactly 90%, is satisfied.

Please tell me: is the binder ANTI-HUMAN ENTPD2 MAB8 (antibody, human IgG1, lambda, V domains shown) VH: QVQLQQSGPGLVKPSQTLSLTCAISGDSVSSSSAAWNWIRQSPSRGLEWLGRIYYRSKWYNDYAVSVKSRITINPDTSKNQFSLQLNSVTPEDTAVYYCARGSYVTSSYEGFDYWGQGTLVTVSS VL: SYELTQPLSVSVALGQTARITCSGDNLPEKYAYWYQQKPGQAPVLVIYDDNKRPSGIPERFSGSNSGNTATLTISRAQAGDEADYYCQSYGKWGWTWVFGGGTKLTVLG at or over 90% in terms of Human ENTPD2 NIH/3T3 Assay % inhibition?
satisfied

Now this one: ANTI-HUMAN ENTPD2 MAB17 (antibody, human IgG1, kappa, V domains shown) VH: EVQLQQFGAELVKPGASVKISCKASGYTFTDYNMDWVKQSHGKSLEWIGDINPKYDISTYNQQFKGKATLTVDKSSSTAYMELRSLTSEDTAVYYCARRGFFLYYGINYYYFDVWGAGTTVTVSS VL: QIVLTQSPAIMSASLGEEITLTCSASSSVSYIHWYQQKSGTSPTLLIYSTSNLASGVPSRFSGSGSGTFYSLTISSVEAEDAADYYCHQWSSYPWTFGGGTKLEIKR
satisfied

Now this one: ANTI-HUMAN ENTPD2 MAB16 (antibody, human IgG1, kappa, V domains shown) VH: DIQLQESGPGLVKPSQSLSLTCSVTGYSITSGYYWNWIRQFPGNKLEWMGYISYDGDNNYNPSLKNRISITRDTSKNQFFLKLSSVTTEDTATYYCAGGYYRYGLSYYYVMDYWGQGTSVTVSS VL: DTVLTQSPASLAVSLGQRATISCKASQSVDYDGNSYMNWYQQKPGQPPKLLIYAASNLESGIPARFSGSGSGTDFTLNIHPVEEEDAATYYCQQSNEDPPTFGGGTKLEIKR
not satisfied

Now this one: ANTI-HUMAN ENTPD2 MAB6 (antibody, human IgG1, kappa, V domains shown) VH: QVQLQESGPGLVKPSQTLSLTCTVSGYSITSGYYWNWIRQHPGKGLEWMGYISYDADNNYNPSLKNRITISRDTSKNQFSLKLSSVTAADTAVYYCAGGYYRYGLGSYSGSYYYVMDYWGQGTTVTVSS VL: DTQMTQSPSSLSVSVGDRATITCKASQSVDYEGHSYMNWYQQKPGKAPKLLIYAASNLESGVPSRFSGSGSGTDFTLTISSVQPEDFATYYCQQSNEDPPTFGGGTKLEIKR
satisfied

Now this one: ANTI-HUMAN ENTPD2 MAB5 (antibody, human IgG1, kappa, V domains shown) VH: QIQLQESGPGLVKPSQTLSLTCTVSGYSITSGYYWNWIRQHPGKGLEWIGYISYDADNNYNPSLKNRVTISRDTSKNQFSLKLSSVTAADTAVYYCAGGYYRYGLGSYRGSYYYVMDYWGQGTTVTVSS VL: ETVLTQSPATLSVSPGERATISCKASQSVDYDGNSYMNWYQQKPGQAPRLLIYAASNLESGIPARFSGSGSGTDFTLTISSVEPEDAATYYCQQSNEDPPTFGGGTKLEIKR
satisfied

Now this one: ANTI-HUMAN ENTPD2 MAB4 (antibody, human IgG1, kappa, V domains shown) VH: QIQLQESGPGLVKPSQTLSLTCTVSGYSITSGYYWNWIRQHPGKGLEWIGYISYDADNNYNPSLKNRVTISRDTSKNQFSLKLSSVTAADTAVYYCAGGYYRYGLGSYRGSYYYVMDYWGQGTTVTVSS VL: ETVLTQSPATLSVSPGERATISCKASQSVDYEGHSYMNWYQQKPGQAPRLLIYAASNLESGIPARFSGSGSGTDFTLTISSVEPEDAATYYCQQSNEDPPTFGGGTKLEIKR
not satisfied
